Where these numbers come from: patent US9359311B2

Tested on: primary chicken neurons
Assay: Inhibition of Abeta 1-42 toxicity on primary chicken neurons (MTT)
Assay type: cell-based
Design: key: No: no effect; +: minor positive effect on cell viability in the presence of aggregated Aβ 1-42; ++: medium positive effect on cell viability in the presence of aggregated Aβ 1-42; +++: strong positive effect on cell viability in the presence of aggregated Aβ 1-42
Conditions: Conc. 1 μM; 10 μM Aβ1-42 aggregated together with compound for 48 h
Procedure: One-day-old fertilized eggs are stored under appropriate conditions until start of breeding. On embryonic day 0 eggs are transferred to the breeding incubator and under turning, kept at 37.8° C. and 55% humidity until embryonic day eight. […] Aβ1-42 aggregated together with compound for 48 hrs was applied to chicken neurons at DIV4 (days in vitro) and analyzed at DIV10 (144 hrs) and all others were applied to chicken neurons at DIV6 and analysed at DIV10 (96 hrs). […]
ASSAY_METRIC: Rescue of Abeta toxicity (MTT)

Here is how some molecules turned out for Rescue of Abeta toxicity (MTT).
# MOLECULE, Rescue of Abeta toxicity (MTT)
records = [
    ("O=C(O)Cc1ccccc1-c1cc(CC(=O)O)c(-c2ccc(-c3sc(-c4ccccc4CC(=O)O)cc3CC(=O)O)s2)s1 [Example 47]", "+++"),
    ("O=C(O)Cc1ccsc1-c1ccc(-c2sc(-c3ccc(-c4cc(CC(=O)O)c(-c5ccc(-c6sccc6CC(=O)O)s5)s4)cc3)cc2CC(=O)O)s1 [Example 33]", "++"),
    ("O=C(O)Cc1cc(-c2ccccc2)sc1-c1ccc(-c2sc(-c3ccccc3)cc2CC(=O)O)s1 [Example 21]", "++"),
    ("O=C(O)Cc1cc(-c2ccc(C(=O)O)cc2)sc1-c1ccc(-c2sc(-c3ccc(C(=O)O)cc3)cc2CC(=O)O)s1 [Example 9]", "++"),
]

Look up Rescue of Abeta toxicity (MTT): CS(=O)(=O)c1ccc(-c2ccc(-c3sc(-c4cc(CC(=O)O)c(-c5ccc(-c6ccc(S(C)(=O)=O)cc6)s5)s4)cc3CC(=O)O)s2)cc1 [Example 50]
+++

What measured Rescue of Abeta toxicity (MTT) goes with O=C(O)c1ccc(-c2cc(CCO)c(-c3ccc(-c4sc(-c5ccc(C(=O)O)s5)cc4CCO)s3)s2)s1 [Example 5] ?
++

Which measured Rescue of Abeta toxicity (MTT) value corresponds to O=C(O)CCc1ccsc1-c1ccc(-c2sc(-c3ccc(-c4cc(CCC(=O)O)c(-c5ccc(-c6sccc6CCC(=O)O)s5)s4)s3)cc2CCC(=O)O)s1 [Example 62] ?
+++

// query Rescue of Abeta toxicity (MTT) value for entry CS(=O)(=O)c1ccc(-c2cc(CC(=O)O)c(-c3ccc(-c4sc(-c5ccc(S(C)(=O)=O)cc5)cc4CC(=O)O)s3)s2)cc1 [Example 16]
+++

Would you kindly share the measured Rescue of Abeta toxicity (MTT) for O=C(O)Cc1ccccc1-c1ccc(-c2cc(CC(=O)O)c(-c3ccc(-c4sc(-c5ccc(-c6ccccc6CC(=O)O)s5)cc4CC(=O)O)s3)s2)s1 [Example 56] ?
+++

Endpoint output: Rescue of Abeta toxicity (MTT) of O=C(O)Cc1cc(-c2ccc(-c3cc(CC(=O)O)c(-c4ccc(C(=O)O)s4)s3)s2)sc1-c1ccc(C(=O)O)s1 [Example 6] . Value?
+

Entry O=C(O)Cc1cc(C(=O)c2cccs2)sc1-c1ccc(-c2sc(C(=O)c3cccs3)cc2CC(=O)O)s1 [Example 93] : reported Rescue of Abeta toxicity (MTT) = ?
++

Entry O=C(O)Cc1cc(-c2ccc(-c3ccc(C(=O)O)s3)s2)sc1-c1ccc(-c2sc(-c3ccc(-c4ccc(C(=O)O)s4)s3)cc2CC(=O)O)s1 [Example 18] has what Rescue of Abeta toxicity (MTT)?
+

Which Rescue of Abeta toxicity (MTT) is listed for O=C(O)Cc1ccsc1-c1ccc(-c2sc(-c3cc(CC(=O)O)c(-c4ccc(-c5sccc5CC(=O)O)s4)s3)cc2CC(=O)O)s1 [Example 17] ?
no

I am curious: what Rescue of Abeta toxicity (MTT) value has been reported for O=C(O)Cc1ccsc1-c1ccc(-c2sc(-c3cccc(-c4cc(CC(=O)O)c(-c5ccc(-c6sccc6CC(=O)O)cc5)s4)c3)cc2CC(=O)O)cc1 [Example 39] ?
+

I have this molecule here, O=C(O)Cc1ccsc1-c1ccc(-c2sc(-c3ccc(-c4cc(CC(=O)O)c(-c5ccc(-c6sccc6CC(=O)O)s5)s4)s3)cc2CC(=O)O)s1 [Example 1] , and I need its recorded Rescue of Abeta toxicity (MTT).
+++

Entry under review: O=C(O)Cc1cc(C(=O)c2ccccc2)sc1-c1ccc(-c2sc(C(=O)c3ccccc3)cc2CC(=O)O)s1 [Example 95] . Reported Rescue of Abeta toxicity (MTT)?
no

---

Target: biotinylated Aβ1-42 (Homo sapiens)
Construct: To assure monomerisation of biotinylated Aβ1-42 (Anaspec #23523-0.5) the peptide was thoroughly monomerised
Experiment: Inhibition of Abeta oligomerisation (biotinylated Aβ1-42, neutravidin plate, streptavidin-HRP)
Conditions: inhibition of Aβ1-42 aggregation, approximately 12 nM Aβ1-42, PBS pH 7.4, 2% DMSO, 30 min RT
Friendly reminder: IC50 below 4000 nM is Y, at or above is N.

# COMPOUND, ASSIGNED_LABEL
data = [
    ("O=C(O)Cc1cccc(-c2ccc(-c3cc(CC(=O)O)c(-c4ccc(-c5sc(-c6ccc(-c7cccc(CC(=O)O)c7)s6)cc5CC(=O)O)s4)s3)s2)c1 [Example 57]", "Y"),
    ("O=C(O)Cc1ccc(-c2ccc(-c3ccc(CC(=O)O)s3)s2)s1 [Example 72]", "N"),
    ("O=C(O)Cc1cc(-c2ccc(C(=O)O)cc2)sc1-c1ccc(-c2sc(-c3ccc(C(=O)O)cc3)cc2CC(=O)O)s1 [Example 9]", "N"),
    ("CS(=O)(=O)c1ccc(-c2sc(-c3ccc(-c4cc(CC(=O)O)c(-c5ccc(S(C)(=O)=O)cc5)s4)s3)cc2CC(=O)O)cc1 [Example 36]", "N"),
    ("O=C(O)c1cccc(-c2cc(CCO)c(-c3ccc(-c4sc(-c5cccc(C(=O)O)c5)cc4CCO)s3)s2)c1 [Example 74]", "N"),
    ("COC(=O)Cc1cc(-c2ccc(C(=O)O)s2)sc1-c1ccc(-c2sc(-c3ccc(C(=O)O)s3)cc2CC(=O)OC)s1 [Example 69]", "Y"),
    ("O=C(O)Cc1ccsc1-c1ccc(-c2sc(-c3ccc(-c4cc(CC(=O)O)c(-c5ccc(-c6sccc6CC(=O)O)cc5)s4)s3)cc2CC(=O)O)cc1 [Example 40]", "Y"),
    ("O=C(O)CCc1ccsc1-c1ccc(-c2sc(-c3ccc(-c4cc(CCC(=O)O)c(-c5ccc(-c6sccc6CCC(=O)O)s5)s4)s3)cc2CCC(=O)O)s1 [Example 62]", "Y"),
    ("O=C(O)Cc1cc(-c2ccccc2)sc1-c1ccc(-c2sc(-c3ccccc3)cc2CC(=O)O)s1 [Example 21]", "Y"),
    ("O=C(O)Cc1cc(-c2cccc(OC(F)(F)F)c2)sc1-c1ccc(-c2sc(-c3cccc(OC(F)(F)F)c3)cc2CC(=O)O)s1 [Example 87]", "Y"),
]

Please state whether IC50 is below 4000 nM for O=C(O)Cc1ccsc1-c1ccc(-c2cc(CC(=O)O)c(-c3ccc(-c4sc(-c5ccc(-c6sccc6CC(=O)O)s5)cc4CC(=O)O)s3)s2)s1 [Example 84]
Y

# TODO verify IC50 < 4000 nM strictly for this compound: O=C(O)Cc1ccsc1-c1ccc(-c2sc(-c3ccc(-c4cc(CC(=O)O)c(-c5ccc(-c6sccc6CC(=O)O)s5)s4)cc3)cc2CC(=O)O)s1 [Example 33]
Y

Consider the compound O=C(O)Cc1cc(-c2ccc(C(=O)O)s2)sc1-c1ccc(-c2sc(-c3ccc(C(=O)O)s3)cc2CC(=O)O)s1 [p-FTAA, reference compound] . Is its IC50 strictly less than 4000 nM?
N

Is IC50 of O=C(O)/C=C/c1ccc(-c2cc(CC(=O)O)c(-c3ccc(-c4sc(-c5ccc(/C=C/C(=O)O)s5)cc4CC(=O)O)s3)s2)s1 [Example 64] strictly below 4000 nM?
Y

IC50 strictly < 4000 nM for this compound? O=C(O)Cc1ccsc1-c1ccc(-c2sc(-c3ccc(-c4cc(CC(=O)O)c(-c5ccc(-c6sccc6CC(=O)O)cc5)s4)cc3)cc2CC(=O)O)cc1 [Example 38]
Y

Identify whether the compound O=C(O)Cc1ccsc1-c1ccc(-c2sc(-c3ccc(-c4cc(CC(=O)O)c(-c5ccc(-c6sccc6CC(=O)O)s5)s4)s3)cc2CC(=O)O)s1 [Example 1] records IC50 below 4000 nM.
Y

---

Target: biotinylated Aβ1-42 (Homo sapiens, UniProt P05067)
Construct: To assure monomerisation of biotinylated Aβ1-42 (Anaspec #23523-0.5) the peptide was thoroughly monomerised
Sequence (P05067 672-713 limits assumed): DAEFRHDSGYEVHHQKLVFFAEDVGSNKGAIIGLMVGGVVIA
Assay: Inhibition of Abeta oligomerisation (biotinylated Aβ1-42, neutravidin plate, streptavidin-HRP)
Settings: inhibition of Aβ1-42 aggregation, approximately 12 nM Aβ1-42, PBS pH 7.4, 2% DMSO, 30 min RT
ASSAY_METRIC: IC50
// unit must come after the numeric part

# MOLECULE, IC50
rows = [
    ("CS(=O)(=O)c1ccc(-c2cc(CC(=O)O)c(-c3ccc(-c4sc(-c5ccc(S(C)(=O)=O)cc5)cc4CC(=O)O)s3)s2)cc1 [Example 16]", "5.01 µM"),
    ("O=C(O)Cc1cc(-c2cccc(C(=O)O)c2)sc1-c1ccc(-c2sc(-c3ccc(C(=O)O)s3)cc2CC(=O)O)s1 [Example 14]", "2 µM"),
]

Please look at the following molecule next.
State the recorded IC50 for this entry: C[S+]([O-])c1cccc(-c2cc(CC(=O)O)c(-c3ccc(-c4sc(-c5cccc([S+](C)[O-])c5)cc4CC(=O)O)s3)s2)c1 (stereo not drawn) [Example 24]
10 µM
